# TARGET_SYSTEM: protein-protein interaction between SOS1 and KRAS G12C (Homo sapiens, UniProt P01116, C118S/C51S/C80L/G12C)
# Construct: His6 (N)
# Sequence (P01116 1-169 isoform P01116-2 G12C/C51S/C80L/C118S): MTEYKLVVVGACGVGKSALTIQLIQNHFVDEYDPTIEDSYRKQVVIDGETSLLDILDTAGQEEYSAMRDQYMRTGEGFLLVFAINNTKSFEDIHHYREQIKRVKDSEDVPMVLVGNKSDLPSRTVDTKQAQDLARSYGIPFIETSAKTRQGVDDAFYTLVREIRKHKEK
# METHOD_SUMMARY: KRAS::SOS1 AlphaScreen binding assay
# PROTOCOL_CONDITIONS: Table 36
MEASURED_ATTRIBUTE: IC50 (nM)

Worked cases, answers included:
Query :: Let me know recorded IC50 for C=CC(=O)N1CCCN(c2cc(-c3noc([C@@]4(C)CCCc5sc(N)c(C#N)c54)n3)nc(N3CCCN(CCCOC)C[C@@H]3C)n2)CC1 [Ia-45] , thanks.
Result :: 6

Query :: Let me know recorded IC50 for C=CC(=O)N1CCN(c2nc(O[C@@H](C)[C@@H]3CCCN3C)nc(-c3noc([C@@]4(C)CCCc5sc(N)c(C#N)c54)n3)n2)CC1 [Ia-139] , thanks.
Result :: 1.5

I: C=CC(=O)N1CCN(c2cc(-c3noc(C4(C)CCCc5sc(N)c(C#N)c54)n3)nc(N3CCN(C4CC4)CC3)c2)CC1 (stereo not drawn) [Ia-17]
II: C=CC(=O)N1CCN(c2cc(O[C@@H](C)[C@@H]3CCCN3C)nc(-c3noc([C@@]4(C)CCCc5sc(N)c(C#N)c54)n3)c2)CC12CCCC2 [Ia-84]
Query :: Would you mind telling me which has the lower recorded IC50 between I and II ? Reply briefly: the label of your chosen item.
Result :: II
(II: 3 nM, I: 260 nM)

P: C=CC(=O)N1CCN(c2cc(-c3noc(C4(C)CCCc5sc(N)c(C#N)c54)n3)nc(N3CCC(N4CCOCC4)CC3)c2)CC1 (stereo not drawn) [Ia-29]
Q: C=CC(=O)N1CCN(c2cc(-c3noc([C@@]4(C)CCCc5sc(N)c(C#N)c54)n3)nc(O[C@H]3CCN(C)[C@H]3C)n2)CC1 [Ia-68]
Query :: Param pair: P , Q . Output: the one whose IC50 is numerically greater. Reply briefly: the label of your chosen item.
Result :: P

a: C=CC(=O)N1CCC(Oc2cc(-c3noc([C@]4(C)CCCc5sc(N)c(C#N)c54)n3)nc(N3CCN(C)C[C@@H]3C)c2)CC1 [Ia-80]
b: C=CC(=O)N1CCCN(c2cc(-c3noc([C@@]4(C)CCCc5sc(N)c(C#N)c54)n3)nc(O[C@@H](C)[C@@H]3CCCN3C)n2)CC1 [Ia-52]
c: C=CC(=O)N1CCN(c2cc(OCCCN(C)C)cc(-c3noc(C4(C)CCCc5sc(N)c(C#N)c54)n3)c2)CC1 (stereo not drawn) [Ia-142]
d: C=CC(=O)N1CCN(c2cc(-c3noc(C4(C)CCCc5sc(N)c(C#N)c54)n3)nc(N3CCC(N4CCCCC4)C3)c2)CC1 (stereo not drawn) [Ia-22]
Query :: // sort entries: IC50, high to low List the labels according to the requested ordering.
Result :: a, c, d, b

---

# TARGET_SYSTEM: protein-protein interaction between SOS1 and KRAS G12C (Homo sapiens, UniProt P01116, C118S/C51S/C80L/G12C)
# Construct: His6 (N)
# METHOD_SUMMARY: KRAS::SOS1 AlphaScreen binding assay
# PROTOCOL_CONDITIONS: Table 36
pIC50: −log10 of the molar value.
MEASURED_ATTRIBUTE: pIC50

Worked cases, answers included:
Query :: Let me know recorded pIC50 for C=CC(=O)N1CCN(c2cc(-c3noc(C4(C)CCCc5sc(N)c(C#N)c54)n3)nc(N3CCC(N4CCCCC4)CC3)c2)CC1 (stereo not shown) , thanks.
Result :: 7.33

Query :: Let me know recorded pIC50 for C=CC(=O)N1CCN(c2cc(-c3noc([C@@]4(C)CCCc5sc(N)c(C#N)c54)n3)nc(O[C@H]3C4CC5CN(C)[C@@H]3[C@H]5C4)n2)CC1 (stereo partly shown) , thanks.
Result :: 7.72

Query :: Let me know recorded pIC50 for C=CC(=O)N1CC(CN(C)c2cc(-c3noc([C@@]4(C)CCCc5sc(N)c(C#N)c54)n3)nc(N3CCCN(C)C[C@@H]3C)n2)C1 , thanks.
Result :: 6.42

Query :: Let me know recorded pIC50 for C=CC(=O)N1CC[C@H](Oc2cc(-c3noc(C4(C)CCCc5sc(N)c(C#N)c54)n3)nc(N3CCN(C)CC3)c2)C1 (stereo partly shown) , thanks.
Result :: 6.33

I: C=CC(=O)N1CCN(c2cc(-c3ccncc3)nc(-c3noc(C4(C)CCCc5sc(N)c(C#N)c54)n3)c2)CC1 (stereo not shown)
II: C=CC(=O)N1CC2=C(C1)CN(c1cc(-c3noc([C@@]4(C)CCCc5sc(N)c(C#N)c54)n3)nc(N3CCCN(C)C[C@@H]3C)n1)C2
III: C=CC(=O)N1CC2CN(c3cc(-c4noc([C@@]5(C)CCCc6sc(N)c(C#N)c65)n4)nc(N4CCCN(C)C[C@@H]4C)n3)CC2C1 (stereo partly shown)
Query :: Arrange items by their pIC50 values in increasing order. List the labels according to the requested ordering.
Result :: I, II, III
